Test system: SF-539 CNS
Test: NCI tumour cell line growth inhibition, 48 h
attribute measured: TGI

Please review the following examples before continuing.
>>> df
                                   compound  tested_target  measured_result
0  COc1cccc(N2C(=O)C3CC(CC(C)(C)C)c4c([nH]c5ccccc45)C3C2=O)c1 (stereo not drawn)     SF-539 CNS          8.42 µM
1  O=CC(O)C(O)C(OC1OC(CO)C(O)C(O)C1O)C(O)CO (stereo not drawn) (tested in a mixture with another compound)     SF-539 CNS         > 100 µM
2  CCc1c(C#N)c(SC(C(N)=O)c2ccccc2)nc(N2CCC(N)CC2)c1C#N (stereo not drawn)     SF-539 CNS          28.9 µM
3  Nc1ncnc2c1N=C(c1ccccc1)CC(c1ccccc1)N2 (stereo not drawn)     SF-539 CNS         > 100 µM
4              O=c1[nH]nc(Cc2ccccc2)n1C1CC1     SF-539 CNS         > 100 µM

Report TGI for "CCOC(=O)C1=C(C)N(Cc2ccc(Cl)cc2Cl)[C@]2(C#N)C(O)=C(Cl)C(Cl)=C(O)[C@]12C#N" please.
33.1 µM

Report TGI for "Cc1cc(NS(=O)(=O)c2ccc(NC(=O)c3ccc4nc5ccccc5c(Nc5ccc(S(=O)(=O)Nc6cc(C)on6)cc5)c4c3)cc2)no1" please.
> 50 µM

Report TGI for "COc1cccc(Nc2nc(NS(=O)(=O)c3cc(C)c(Cl)cc3S)n[nH]2)c1" please.
> 100 µM

Report TGI for CON(C)C(=O)C(C)NC(=O)OC(C)(C)C (stereo not drawn) please.
> 100 µM

Report TGI for CCCCC1Cc2cc(OC)ccc2-c2n1c1cc(OC)ccc1[n+]2C (stereo not drawn) (tested in a mixture with another compound) please.
> 44.9 µM

----------
Tested on: EKVX NSCLC
Assay: NCI tumour cell line growth inhibition, 48 h
Items are presented alongside their recorded TGI.

API: value(readout=TGI, system=EKVX NSCLC) for record "COc1ccc(/C=N/n2c(Cc3ccccc3)n[nH]c2=O)cc1"
> 100 µM

API: value(readout=TGI, system=EKVX NSCLC) for record "Nc1nc(-c2ccccc2)cc(-c2cc(Cl)ccc2O)n1"
> 100 µM

API: value(readout=TGI, system=EKVX NSCLC) for record "CCOC(=O)c1cc2cc(OCc3ccccc3)ccc2[nH]1"
> 100 µM

API: value(readout=TGI, system=EKVX NSCLC) for record "CCOc1cc2c(cc1O)CC[C@@H]1[C@@H]2CC[C@]2(C)[C@@H](O)CC[C@@H]12"
48 µM

API: value(readout=TGI, system=EKVX NSCLC) for record CC(=O)OC1CC[C@@]2(C)C(=CC[C@@H]3[C@@H]2CC[C@]2(C)C(OC(C)=O)[C@H](n4ccnc4)C[C@@H]32)C1 (stereo partly specified)
> 100 µM

API: value(readout=TGI, system=EKVX NSCLC) for record COc1cccc2c1[C@H]1OC(=O)NC1CCCCC2 (stereo partly specified)
> 100 µM

----------
Test system: HS 578T breast
Test: NCI tumour cell line growth inhibition, 48 h
Items are presented alongside their recorded TGI.

Please review the following examples before continuing.
In [3]: df
Out[3]:
                                   compound  attribute_measured  measured_result
0  CC1=NNC(=O)[C@H]2[C@H]1CCC1[C@@H]2CC[C@]2(C)[C@@H](O)CC[C@@H]12 (stereo partly specified)                 TGI         > 100 µM
1    Cc1ccc(NC2=CC(=O)C(=O)c3ccccc32)c(C)c1                 TGI          7.99 µM
2  CC/C(=C(/c1ccc(/C=C/C(=O)O)cc1)c1ccc2[nH]ncc2c1)c1ccc(F)cc1Cl                 TGI          38.7 µM

Report TGI for "Cc1nn2c(-c3nc4cc(Cl)c(Cl)cc4[nH]3)c(-c3ccc(F)cc3)nc2s1" please.
> 29.6 µM

----------
Test system: HOP-92 NSCLC
Assay: NCI tumour cell line growth inhibition, 48 h
attribute measured: GI50

                                   compound  attribute_measured  measured_result
0   N=C(N)c1ccc(OCCCCCOc2ccc(C(=N)N)cc2)cc1                GI50          1.89 µM
1  OC(c1cc(-c2ccc(Cl)cc2)nc2c(Cl)cccc12)C1CCCCN1 (stereo unspecified)                GI50          1.02 µM
2  O=C(Nc1nc2c(s1)CCc1c-2c(Br)n(Cc2ccccc2)c1Br)c1ccccc1                GI50           1.2 µM
3      CCOC(=O)c1cc2cc(OCc3ccccc3)ccc2[nH]1                GI50          62.3 µM
4  COc1ncc2cc1NS(=O)(=O)c1cccc(c1)C(=O)NCC1=CC=C(S1)c1ncnc3c1SC2=C3C                GI50        0.0526 µM
5  CCc1ccc(C2=NN(c3ccc(S(C)(=O)=O)cc3)C(=O)CC2)cc1                GI50          1.86 µM
6  N#Cc1cccc(C2C3=C(COC3=O)N(CCO)c3cc4c(cc32)CCC4)c1 (stereo unspecified)                GI50         0.871 µM
7  CCN(CC)Cc1cc(Nc2cc(C(F)(F)F)c(C#N)c3nc4ccccc4n23)ccc1O                GI50          0.59 µM
8  O=C1C2C(C(=O)N1CC[Se][Se]CCN1C(=O)C3C(C1=O)[C@H]1C=C[C@@H]3C1)[C@H]1C=C[C@@H]2C1 (stereo partly specified)                GI50         0.575 µM
9  O=S(=O)(NCCCNc1nccc(-c2c(-c3cccc(F)c3)nc3occn23)n1)c1cccc2ccccc12                GI50         > 100 µM

Report GI50 for "C=CC[PH+](c1ccccc1)c1ccccc1.C=CC[PH+](c1ccccc1)c1ccccc1.[Pt+2].[S-]c1ncccn1.[S-]c1ncccn1" please.
2.7 µM

----------
Tested on: MCF7 breast
Assay: NCI tumour cell line growth inhibition, 48 h
Tag: condition met if measured TGI is not below 20 µM, condition not met if it is.

Example entries begin here.
In [3]: df
Out[3]:
                                   compound         class_name
0  O=C1C2C(C(=O)N1CC[Se][Se]CCN1C(=O)C3C(C1=O)[C@H]1C=C[C@@H]3C1)[C@H]1C=C[C@@H]2C1 (stereo partly specified)  condition not met
1             Cn1cnnc1SC(F)(F)c1nc2ccccc2o1      condition met

Does TGI meet or surpass 20 µM for CN1CC[C@]23c4c5ccc(O)c4OC2c2[nH]ncc2C[C@H]3[C@H]1C5 (stereo partly specified) ?
condition met

Does TGI meet or surpass 20 µM for "CCCCOc1ccc(S(=O)(=O)/N=C(\N)Nc2ccc(Cl)cc2)cc1" ?
condition met

Does TGI meet or surpass 20 µM for "CCOC(=O)C1=C(C)N(Cc2ccc(Cl)cc2Cl)[C@]2(C#N)C(O)=C(Cl)C(Cl)=C(O)[C@]12C#N" ?
condition met

Does TGI meet or surpass 20 µM for "O=C(/C=C/c1ccc(Cl)cc1)c1ccc(Cl)s1" ?
condition met

Does TGI meet or surpass 20 µM for CN(C)c1ccc2c(c1)OC(N)=C(C#N)C2c1ccc2c(c1)CCCN2C (stereo unspecified) ?
condition met

Does TGI meet or surpass 20 µM for "O=S(=O)(O)c1ccc2c(N=Nc3c(O)ccc4ccccc34)cccc2c1" ?
condition met

Does TGI meet or surpass 20 µM for "O=C1c2ccccc2-n2c1nc1ccc(Cl)cc1c2=O" ?
condition met

Does TGI meet or surpass 20 µM for "CO[C@]12C[C@@H](CNC(=O)c3cc(Br)c[nH]3)O[C@H]1NC(=O)N2" ?
condition met

Does TGI meet or surpass 20 µM for "Cc1n(Cc2ccc3ccccc3n2)cc[n+]1Cc1ccc2ccccc2c1" ?
condition not met

Does TGI meet or surpass 20 µM for "CN(c1ccc(NC(=O)NCCN2CCOCC2)cc1)c1ccnc(Nc2ccc(CS(C)(=O)=O)cc2)n1" ?
condition met

Does TGI meet or surpass 20 µM for "COc1cccc(Nc2nc(NS(=O)(=O)c3cc(C)c(Cl)cc3S)n[nH]2)c1" ?
condition met

Does TGI meet or surpass 20 µM for "Oc1ccc(-c2[nH]c3ccccc3c2-c2nc3ccccc3o2)cc1" ?
condition not met

Does TGI meet or surpass 20 µM for "Cc1ccc(NC(=O)c2ccc(NC3=C(Cl)C(=O)N(Cc4ccccc4)C3=O)cc2)cc1Cl" ?
condition not met

Does TGI meet or surpass 20 µM for Cn1c(CC(O)c2nc3ccccc3n2C)nc2ccccc21 (stereo unspecified) ?
condition met
